Target: human c-Met (human, UniProt P08581 25-1390)
Sequence (P08581 25-1390): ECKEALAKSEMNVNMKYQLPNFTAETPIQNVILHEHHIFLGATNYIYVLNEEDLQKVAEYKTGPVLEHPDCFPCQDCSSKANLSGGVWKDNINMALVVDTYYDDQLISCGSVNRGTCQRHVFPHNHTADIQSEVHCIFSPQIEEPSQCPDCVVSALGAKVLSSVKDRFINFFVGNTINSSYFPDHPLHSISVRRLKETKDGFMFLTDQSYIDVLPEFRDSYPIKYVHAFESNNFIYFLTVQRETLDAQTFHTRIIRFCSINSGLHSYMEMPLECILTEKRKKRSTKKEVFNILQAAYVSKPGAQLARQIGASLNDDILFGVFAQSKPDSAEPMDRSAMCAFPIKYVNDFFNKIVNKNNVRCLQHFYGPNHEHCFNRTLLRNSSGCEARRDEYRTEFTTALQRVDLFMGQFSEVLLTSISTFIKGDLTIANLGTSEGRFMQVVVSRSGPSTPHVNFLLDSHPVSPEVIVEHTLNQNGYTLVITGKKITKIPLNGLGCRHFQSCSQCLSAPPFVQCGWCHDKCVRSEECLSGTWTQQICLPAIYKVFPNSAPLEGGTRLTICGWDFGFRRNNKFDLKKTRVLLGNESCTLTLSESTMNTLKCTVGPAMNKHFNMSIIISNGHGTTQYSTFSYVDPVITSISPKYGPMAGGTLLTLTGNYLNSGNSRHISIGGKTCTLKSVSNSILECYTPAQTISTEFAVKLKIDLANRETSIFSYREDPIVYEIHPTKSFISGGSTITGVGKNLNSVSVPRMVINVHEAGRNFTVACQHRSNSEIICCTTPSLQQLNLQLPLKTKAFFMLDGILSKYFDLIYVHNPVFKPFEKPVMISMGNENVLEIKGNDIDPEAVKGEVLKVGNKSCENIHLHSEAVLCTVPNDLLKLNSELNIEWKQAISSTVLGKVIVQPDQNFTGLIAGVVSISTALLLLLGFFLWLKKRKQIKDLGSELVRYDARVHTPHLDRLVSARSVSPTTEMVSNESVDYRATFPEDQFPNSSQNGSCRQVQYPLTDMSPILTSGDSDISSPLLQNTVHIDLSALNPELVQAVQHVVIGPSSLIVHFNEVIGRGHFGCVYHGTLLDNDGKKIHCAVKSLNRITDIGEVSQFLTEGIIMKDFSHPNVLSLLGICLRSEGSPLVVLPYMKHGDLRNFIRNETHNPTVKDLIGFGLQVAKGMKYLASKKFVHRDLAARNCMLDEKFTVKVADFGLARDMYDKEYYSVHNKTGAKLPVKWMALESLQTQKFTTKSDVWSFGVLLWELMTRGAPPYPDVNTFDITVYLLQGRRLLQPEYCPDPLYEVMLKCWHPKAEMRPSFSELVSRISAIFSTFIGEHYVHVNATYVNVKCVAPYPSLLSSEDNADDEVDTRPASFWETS
Assay: cell-based or functional assay
value.type: AVG CPM, 3H-thymidine incorporation in MKN45 cells, Ab 15.4 ng/mL (CPM)
Respond with the bare value in CPM.

Consider the worked cases shown below.
D11-8B8 (antibody, human IgG2, kappa, V domains shown, Human engineered IgG2 kappa c-Met antibody; also called Mab D11-8B8; D11-8B8 IgG2) VH: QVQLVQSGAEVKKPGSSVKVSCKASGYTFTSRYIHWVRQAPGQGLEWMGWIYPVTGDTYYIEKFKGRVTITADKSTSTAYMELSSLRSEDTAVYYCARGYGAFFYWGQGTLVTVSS VL: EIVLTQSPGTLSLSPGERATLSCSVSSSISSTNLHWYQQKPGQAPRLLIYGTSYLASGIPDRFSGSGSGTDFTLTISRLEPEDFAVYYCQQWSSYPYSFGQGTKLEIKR :: 24400
D11-S17Y (antibody, human IgG2, kappa, V domains shown, Human engineered IgG2 kappa c-Met antibody; also called D11-S17Y IgG2) VH: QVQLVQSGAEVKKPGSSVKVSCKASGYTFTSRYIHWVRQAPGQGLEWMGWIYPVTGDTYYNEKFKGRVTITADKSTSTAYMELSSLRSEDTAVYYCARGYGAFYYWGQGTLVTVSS VL: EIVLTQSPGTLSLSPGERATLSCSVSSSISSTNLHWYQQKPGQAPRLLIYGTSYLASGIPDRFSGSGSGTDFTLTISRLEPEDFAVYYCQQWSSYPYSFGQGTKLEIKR :: 39700
C8-6 (antibody, human IgG2, kappa, V domains shown, Named IgG4 kappa; also called C8-6 IgG4) VH: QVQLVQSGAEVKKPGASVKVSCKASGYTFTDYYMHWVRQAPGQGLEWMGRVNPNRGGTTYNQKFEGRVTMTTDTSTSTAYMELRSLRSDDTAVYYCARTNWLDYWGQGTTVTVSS VL: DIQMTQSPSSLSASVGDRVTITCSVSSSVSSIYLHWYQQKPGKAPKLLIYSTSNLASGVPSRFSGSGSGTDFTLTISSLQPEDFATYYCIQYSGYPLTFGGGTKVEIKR :: 44800

Output measured AVG CPM, 3H-thymidine incorporation in MKN45 cells, Ab 15.4 ng/mL for this item: C8-co-16 (antibody, human IgG2, kappa, V domains shown, Named IgG4 kappa; also called C8-co-16 IgG4) VH: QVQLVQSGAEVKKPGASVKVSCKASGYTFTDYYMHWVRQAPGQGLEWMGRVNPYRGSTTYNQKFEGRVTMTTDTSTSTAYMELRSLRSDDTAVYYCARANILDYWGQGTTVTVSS VL: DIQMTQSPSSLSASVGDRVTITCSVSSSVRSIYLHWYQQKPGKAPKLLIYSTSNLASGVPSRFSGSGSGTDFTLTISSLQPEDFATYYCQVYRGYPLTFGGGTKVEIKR
22500

Output measured AVG CPM, 3H-thymidine incorporation in MKN45 cells, Ab 15.4 ng/mL for this item: D11-C27G3 (antibody, human IgG2, kappa, V domains shown, Human engineered IgG2 kappa c-Met antibody; also called D11-27G3; D11-C27G3 IgG2) VH: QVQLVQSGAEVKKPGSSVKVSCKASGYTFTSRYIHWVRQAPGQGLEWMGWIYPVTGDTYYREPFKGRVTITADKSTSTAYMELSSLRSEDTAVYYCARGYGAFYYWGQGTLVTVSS VL: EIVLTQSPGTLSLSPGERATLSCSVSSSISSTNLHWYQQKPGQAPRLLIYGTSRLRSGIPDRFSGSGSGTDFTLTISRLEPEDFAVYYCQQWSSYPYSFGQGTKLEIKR
28700

The values you see were collected from patent US20100129369A1.
